Origin of the recorded values: PubChem BioAssay (NCI)

- Test system: SK-MEL-2 melanoma
- run.description: NCI-60 one-dose screen, 48 h
- condition.parameters: 10 µM unless noted
Compounds without any hit were thinned out: in the full panel of roughly 83,000, 20% have a hit. Active and inactive are the calls of the source. The calls were made as follows: active = growth percent below 10; inactive = the rest.
Hi there, use one of these labels in your reply, thanks! T = active, F = inactive

// known answers, use as guide
In [3]: df
Out[3]:
                                   molecule  class_name
0  CCCC(=O)NC(c1ccc2c(c1)OC(F)(F)O2)c1cc(C)c2cccnc2c1O (centres undefined)           F
1  O=C(c1ccc(O)cc1)C1[C@H](c2ccc(Cl)cc2)[C@@H](c2ccccc2)NC12C(=O)Nc1ccc(Cl)cc12 (some centres undefined)           F
2  CS(=O)(=O)c1ccc(-c2nc3ccccn3c2-c2nc3ccc([N+](=O)[O-])cc3[nH]2)cc1           F
3      Cc1sc2nc(NCc3ccccc3Cl)[nH]c(=O)c2c1C           F
4  CN(C)c1ccc(-c2c(NC(C)(C)C)nc3c(OCCc4ccccc4)cccn23)cc1           F

Dear colleague, could you share the recorded outcome for C/C(=N/NC(N)=S)c1ccc(Nc2nc(SCC(C)C)nc(-c3ccc(F)cc3)c2C#N)cc1 when you have a moment? F

For this molecule, state the assay outcome: O=C(CSc1nc2sc3c(c2c(=O)n1-c1ccc(Cl)cc1)CCCC3)NNC(=O)Nc1ccc(Cl)c(C(F)(F)F)c1 T

What classification did Cc1nc(-c2cc3ccccc3oc2=O)ccc1C(=O)/C=C/c1ccc(N2CCOCC2)cc1 end up with in this test? F

Answer briefly: the call reported for COC(=O)c1ccc(NC(=S)N2CCc3ccc([N+](=O)[O-])cc3C2)cc1O in this assay. F

Please share the test call associated with CC(=O)Oc1ccccc1C(=O)Nc1ccc(C(=O)/C=C/c2cccs2)cc1 . F

Which outcome was assigned to COc1ccc(NC(=O)c2sc3nc(-c4cnccn4)cc(-c4cccs4)c3c2N)cc1 in this test? F

Tell me the assay call for O=C(N/N=C/c1ccc(Br)s1)c1[nH]c2ccc(Br)cc2c1-c1ccccc1 please. F

Field: outcome | Entry: Cc1nc(-c2cc3ccccc3oc2=O)ccc1C(=O)/C=C/c1ccc(Cl)c(Cl)c1 F

Can you look up the reported call for O=C(N/N=C/c1ccc([N+](=O)[O-])o1)c1[nH]c2ccc(Br)cc2c1-c1ccccc1 for me? T

Which outcome was entered for the molecule c1ccc(CNc2ncnc3ccc(-c4cnc5[nH]ncc5c4)cc23)cc1 in this test? F

Tell me the assay call for Nc1nc(N)c2c(n1)NC(c1ccc(F)cc1)CC(c1ccc(Nc3nc(NCCO)nc(Nc4ccc(Cl)cc4)n3)cc1)=N2 (centres undefined) please. F

Lab log entry: Cc1c(NC(=O)CSc2nc3sc4c(c3c(=O)n2-c2ccc(Cl)cc2)CCCC4)c(=O)n(-c2ccccc2)n1C — outcome as called in the assay? F

Tell me the recorded outcome of this test for CC(C)(C)Nc1nc2c(OCCc3ccccc3)cccn2c1-c1ccccc1Cl . T

In this assay, the call recorded for CCN1C(=S)N(CC)C2C1NN=C1SC(c3ccccc3)=CC(=O)N12 (centres undefined) was what? F

====

- Test system: NCI/ADR-RES ovarian
- run.description: NCI-60 one-dose screen, 48 h
- condition.parameters: 10 µM unless noted
The panel holds about 83,000 compounds, 20% with a hit somewhere; the sample as a whole holds those more often. The source made the active and inactive calls. Rule for the calls: active = growth percent below 10; inactive = the rest.
Result category, one only: Yes for active, No for inactive

Please review the following examples before continuing.
>>> print(df.to_string())
                                   molecule            tested_on  class_name
0  CN(C)CCCOc1c2ccc(Cl)cc2nc2c1oc1ccc(Cl)cc12  NCI/ADR-RES ovarian         Yes
1    N#Cc1nc(-c2ccccc2)oc1S(=O)(=O)N1CCCCC1  NCI/ADR-RES ovarian          No
2  CCN1CCN(/C(=N\c2sc(-c3ccccc3)nc2-c2ccccc2)c2ccccc2)CC1  NCI/ADR-RES ovarian          No
3  CC(=O)Nc1cc(F)cc(-c2ccc3[nH]cc(-c4ccccc4)c3n2)c1  NCI/ADR-RES ovarian          No

Hi, do you know how O=C(N/N=C/c1ccc[nH]1)c1[nH]c2ccc(Br)cc2c1-c1ccccc1 came out in this test? No

For NS(=O)(=O)c1ccc(Nc2nc(SCC(=O)c3ccc(Cl)cc3)nc3ccccc23)cc1 , which call appears in the assay record? No

What was the test verdict on Cc1c(NC(=O)CSc2nc3sc4c(c3c(=O)n2-c2ccc(Cl)cc2)CCCC4)c(=O)n(-c2ccccc2)n1C ? No

Check the results log: what was the call for N#Cc1c(-c2ccc(Cl)cc2)nc(SCc2ccc([N+](=O)[O-])cc2)nc1N1CCNCC1 ? Yes

So what was the verdict on Cc1sc2c(c1C)c(=O)nc1c(-c3nc(-c4ccc(F)cc4)no3)n[nH]n12 in this test? No

Give the logged outcome of this assay for the following molecule: O=C(CSc1nc2sc3c(c2c(=O)n1-c1ccc(Cl)cc1)CCCC3)NNC(=O)Nc1cccc(C(F)(F)F)c1 No

====

- Test system: U251 CNS
- run.description: NCI-60 one-dose screen, 48 h (100 = growth as untreated, 0 = no growth, -100 = all killed)
- condition.parameters: 10 µM unless noted
About 83,000 compounds went through this panel and 20% of them were active in at least one assay; those are over-represented in the sample as a whole.
Listed here are compounds together with their documented growth.
Number only, in %; omit the unit.

Requested read-out: growth. Entry: Cc1ccccc1NC(=O)/C=C/c1ccc(OCCOc2ccc3c(C)cc(=O)oc3c2)cc1 85.8

What value of growth has been reported for the following compound? O=[N+]([O-])c1ccc(O)c2ncccc12 17.2

I have this compound here, COc1ccc(-c2nc3ccc(-c4nnc(SCC(=O)Nc5ccc(C(=O)/C=C/c6ccc(Cl)cc6)cc5)o4)cc3[nH]2)cc1OC , and I need its recorded growth. 100

Could you tell me which growth is on file for Cc1cccc2sc(/N=C(\N)C(Br)Br)nc12 ? 9.02

Recorded growth for Nc1c(C(=O)c2ccc(Br)cc2)oc2nc(-c3cnccn3)cc(-c3cccs3)c12 , please? 92.1

Which growth value is on record for Cn1cc(-c2cc(N)n3nc(-c4cn(C)c5ccc(F)cc45)cc3n2)c2cc(F)ccc21 ? -62.4

Quick one: growth for N[C@@H](Cc1cn(-c2ccnc3ccccc23)nn1)C(=O)O ? 101

Find the recorded growth belonging to COc1cccc(COc2ccc(/C=C3/C(=O)Nc4cc(Cl)ccc43)cc2)c1 and report it. 98.9

Please report the recorded growth for Cc1ccc2ccc3ccc(C)nc3c2n1.Cc1ccc2ccc3ccc(C)nc3c2n1.Oc1c(Cl)cc(Cl)c2ccc(CN3CCCCC3)nc12.[Ru] . -54.5

====

- Tested on: 786-0 renal
- run.description: NCI-60 one-dose screen, 48 h (100 = growth as untreated, 0 = no growth, -100 = all killed)
- condition.parameters: 10 µM unless noted
Compounds without any hit were thinned out: in the full panel of roughly 83,000, 20% have a hit.
The threshold is inclusive: growth of exactly 10% counts as label 1; values below receive label 0.

Use the examples below as a reference point.
>>> print(df.to_string())
                                   molecule    tested_on  class_name
0  N#Cc1c(-c2ccc(Cl)cc2)nc(SCc2ccc([N+](=O)[O-])cc2)nc1N1CCNCC1  786-0 renal     label 0
1  O=C(N/N=C/c1ccc([N+](=O)[O-])o1)c1[nH]c2ccc(Br)cc2c1-c1ccccc1  786-0 renal     label 0
2      Cc1sc2nc(NCc3ccccc3Cl)[nH]c(=O)c2c1C  786-0 renal     label 1
3  COc1cc(OC)c(S(=O)(=O)NNC(=O)c2ccncc2)cc1C(=O)/C=C/c1ccc(C)cc1  786-0 renal     label 1
4  Cc1cc(C(NC(=O)CCCCCNc2cccc3c2C(=O)N(C2CCC(=O)NC2=O)C3=O)c2cccnc2)c(O)c2ncccc12 (centres undefined)  786-0 renal     label 0
5  Clc1ccc(-c2cn3cc(Cc4ccc(Cl)c(Cl)c4)sc3n2)cc1  786-0 renal     label 1
6  Nc1c(C(=O)Nc2ccc(Cl)cc2)sc2nc(-c3cnccn3)cc(-c3cccs3)c12  786-0 renal     label 1
7  NC(=O)c1cc(-c2ccc3ncnc(N4CCc5cc(F)c(Cl)cc54)c3c2)cnc1N  786-0 renal     label 1

Kindly review the next molecule as well.
Decide: growth of N#Cc1nc(-c2ccccc2)oc1S(=O)(=O)N1CCN(CCc2ccccn2)CC1 >= 10%? label 0
